Cited source: the supplement of paper PMC6992640

system: HCI01 (cells of a triple-negative basal-like breast cancer xenograft); test: cell viability (% of vehicle); higher = less cytotoxic; conditions: 10 µM; 72 h
Measured Metric: cell viability

Recorded cell viability, per entry:
What value of measured cell viability is listed for O=C(O)c1cc(-c2ccccc2)nc2ccccc12 [Cinchophen] ? 157

Recorded cell viability of COc1cc(C)c(C=CC(C)=CC=CC(C)=CC(=O)O)c(C)c1C [Acitretin] , please. 113

# get_value(readout='cell viability', item= Cc1cc(C2CCCCC2)n(O)c(=O)c1.NCCO [Ciclopirox ethanolamine] ) 113

For COc1ccc(C2CNC(=O)C2)cc1OC1CCCC1 (stereo not drawn) [Rolipram] , what is its reported cell viability? 130

***
Fill blank: measured cell viability of the molecule CCCCOc1cc(C(=O)NCCN(CC)CC)c2ccccc2n1.Cl [Dibucaine (Cinchocaine) HCl] is ____. 124

What does the record list as cell viability for CCCc1cc(=O)[nH]c(=S)[nH]1 [Propylthiouracil] ? 70.4

Param item = CC(OC1OCCN(Cc2nc(=O)[nH][nH]2)C1c1ccc(F)cc1)c1cc(C(F)(F)F)cc(C(F)(F)F)c1 (stereo not drawn) [Aprepitant] ; retrieve measured cell viability. 81

GET /values?readout=cell viability&item= CC(O)C(=O)O.CCOc1ccc2nc3cc(N)ccc3c(N)c2c1.O [Ethacridine lactate monohydrate] 57.6

---

tested on: HCI03 (cells of an ER-positive luminal breast cancer xenograft); assay: cell viability (% of vehicle); higher = less cytotoxic; settings: 10 µM; 72 h
cell viability overview

Any idea what its cell viability is? The compound is COc1cc(NC(C)CCCN)c2ncccc2c1.O=P(O)(O)O.O=P(O)(O)O (centres undefined) [Primaquine Diphosphate] 95.2

***
Item under review: CC(C)n1c(C=CC(O)CC(O)CC(=O)[O-])c(-c2ccc(F)cc2)c2ccccc21.[Na+] (centres undefined) [Fluvastatin Sodium] . Reported cell viability? 135

Return reported cell viability; argument: CCCN(CCC)CCc1cccc2c1CC(=O)N2.Cl [Ropinirole HCl] 93.8

# lookup: cell viability of OCC(O)CN1CCN(c2ccccc2)CC1 (centres undefined) [Dropropizine] 129

---

Listed compounds paired with reported cell viability
tested on: HCI01; assay: cell viability (% of vehicle); higher = less cytotoxic; conditions: 1 µM; 72 h
Please respond with just the number, no unit label.

Examples with answers:
May I ask what cell viability has been recorded for CN(C)CC=CC(=O)Nc1cc2c(Nc3ccc(F)c(Cl)c3)ncnc2cc1OC1CCOC1 (centres undefined) ? 71.3

What does the record list as cell viability for Clc1ccc(C(Cn2ccnc2)OCc2ccc(Sc3ccccc3)cc2)c(Cl)c1.O=[N+]([O-])O (centres undefined) [Fenticonazole Nitrate] ? 89.6

Look up cell viability: `Oc1c(Cl)cc(Cl)c2cccnc12` 93.2

// moving on: another record for cell viability
Give the measured cell viability of CCCSc1nc(NC2CC2c2ccc(F)c(F)c2)c2nnn(C3CC(OCCO)C(O)C3O)c2n1 (centres undefined) . 97.8

---

tested on: HCI09 (cells of a triple-negative luminal androgen receptor type breast cancer xenograft); assay: cell viability (% of vehicle); higher = less cytotoxic; conditions: 10 µM; 72 h
Some molecules, each annotated with its measured cell viability.
// print number alone

Some entries whose results are on file:
So what does the record say about cell viability for CC(=O)SCC(Cc1ccccc1)C(=O)NCC(=O)OCc1ccccc1 (configuration not stated) ? 92.8

Fill in the blank: the reported cell viability of CNC(=O)CN(CCN(CCN(CC(=O)[O-])CC(=O)NC)CC(=O)[O-])CC(=O)[O-].O.[Gd+3] [Gadodiamide] is ____. 99

Give the measured cell viability of CC(C(=O)O)c1ccc2c(c1)CC(=O)c1ccccc1S2 (configuration not stated) . 95.5

Need cell viability of `Cc1cc(Nc2cc(N3CCN(C)CC3)nc(Sc3ccc(NC(=O)C4CC4)cc3)n2)n[nH]1` , thanks. 70

New cases:
Quick one: cell viability for `CCn1cc(C(=O)O)c(=O)c2ccc(C)nc21` ? 96.6

Report cell viability for CC(=O)NC(CS)C(=O)O (configuration not stated) please. 94.3

For `Cc1c(Cl)cccc1Nc1ccccc1C(=O)O` , what is its reported cell viability? 80.6

---

Quick list: cell viability per entry.
test system: HCI01; assay: cell viability (% of vehicle); higher = less cytotoxic; conditions: 10 µM; 72 h
Provide a numeric answer; units are not to be included.

Please review the entries below; each comes with its answer.
Can you share its cell viability? I mean this molecule: CC(C)(C)NCC(O)c1ccc(O)c(CO)c1.O=S(=O)(O)O (centres undefined) [Salbutamol Sulfate] 103

Given the entry `COC(=O)Nc1nc2ccc(C(=O)c3ccc(F)cc3)cc2[nH]1` , report its measured cell viability. 104

Would you mind telling me what cell viability value was observed for `O=C(O)C=Cc1ccc(Cn2ccnc2)cc1` ? 95.1

Next:
Fill in the blank: the reported cell viability of CC(=O)C1(O)Cc2c(O)c3c(c(O)c2C(OC2CC(N)C(O)C(C)O2)C1)C(=O)c1ccccc1C3=O.Cl (centres undefined) [Idarubicin HCl] is ____. 37.5

---

system: WHIM2 (cells of a triple-negative basal-like breast cancer xenograft); test: cell viability (% of vehicle); higher = less cytotoxic; conditions: 10 µM; 72 h
Define the label as Fulfilled when cell viability is strictly less than 100 and as Not fulfilled in all remaining cases.

A selection of reference data follows.
Bench note: check whether `CC(C)(C)c1nc(-c2cccc(NS(=O)(=O)c3c(F)cccc3F)c2F)c(-c2ccnc(N)n2)s1` shows cell viability below 100 Not fulfilled

Consider `CNC(=O)c1cc(Oc2ccc(NC(=O)Nc3ccc(Cl)c(C(F)(F)F)c3)c(F)c2)ccn1` . Does its cell viability lie strictly below 100? Fulfilled

Please indicate whether the reported cell viability of CC12CCC(O)CC1=CCC1C2CCC2(C)C(n3cnc4ccccc43)=CCC12 (centres undefined) is strictly below 100. Not fulfilled

In the record for CCc1cc(C(N)=S)ccn1 [Ethionamide] , is cell viability less than 100? Fulfilled

Does the reported cell viability of `CN(C)CCC=C1c2ccccc2Sc2ccc(Cl)cc21` stay below 100? Fulfilled

Please determine if CCN1CCCC1CNC(=O)c1cc(S(N)(=O)=O)ccc1OC (centres undefined) [Levosulpiride] is below 100 in terms of cell viability. Not fulfilled

New cases:
Is cell viability of `O=C(CCCN1CC=C(n2c(=O)[nH]c3ccccc32)CC1)c1ccc(F)cc1` strictly below 100? Fulfilled

---

system: WHIM30 (cells of a triple-negative basal-like breast cancer xenograft); test: cell viability (% of vehicle); higher = less cytotoxic; details: 10 µM; 72 h
Mark each entry True if its cell viability sits below 100, and False for all others.

hey, is cell viability for COc1ccc(C2Sc3ccccc3N(CCN(C)C)C(=O)C2OC(C)=O)cc1.Cl (stereo not given) [Diltiazem HCl] lower than 100 or not? False

I'd appreciate it if you could check whether `Br.Cc1ccc(Sc2ccccc2N2CCNCC2)c(C)c1` has cell viability smaller than 100. True

---

In this section we review reported cell viability values for a set of compounds.
tested on: HCI09; test: cell viability (% of vehicle); higher = less cytotoxic; settings: 10 µM; 72 h
// no unit string in output, number only

# example entries with known answers
Entry under review: CCN(CC)CCOc1ccc(C(=C(Cl)c2ccccc2)c2ccccc2)cc1.O=C(O)CC(O)(CC(=O)O)C(=O)O [Clomiphene citrate] . Reported cell viability? 34.9

Form field: reported cell viability of CCCCOc1cc(C(=O)NCCN(CC)CC)c2ccccc2n1.Cl [Dibucaine (Cinchocaine) HCl] 92.3

If you can, please state the reported cell viability value of Cc1cccc(C)c1OCC(=O)NC(Cc1ccccc1)C(O)CC(Cc1ccccc1)NC(=O)C(C(C)C)N1CCCNC1=O (configuration not stated) . 57.3

Given the entry N=C(NCCCCCCNC(=N)NC(=N)Nc1ccc(Cl)cc1)NC(=N)Nc1ccc(Cl)cc1 [Chlorhexidine digluconate] , report its measured cell viability. 60.1

Item under review: CNS(=O)(=O)Cc1ccc2[nH]cc(CCN(C)C)c2c1.O=C(O)CCC(=O)O [Sumatriptan Succinate] . Reported cell viability? 89.6

More entries:
What does the record list as cell viability for Cn1c(=O)cc(N2CCCC(N)C2)n(Cc2ccccc2C#N)c1=O (configuration not stated) [Alogliptin (SYR-322)] ? 89.5

# cell viability lookup, item `O=C(O)c1cccnc1Nc1cccc(C(F)(F)F)c1` 58.9

---

// reported cell viability for each item listed
system: HCI16 (cells of a triple-negative basal-like breast cancer xenograft); experiment: cell viability (% of vehicle); higher = less cytotoxic; details: 10 µM; 72 h
Give only the figure.

Some entries whose results are on file:
Form field: reported cell viability of `CCN(CC)C(=S)SSC(=S)N(CC)CC` 92.3

Please look up its cell viability: C=C1C(=CC=C2CCCC3(C)C2CCC3C(C)CCCC(C)(C)O)CC(O)CC1O (configuration not stated) 107

I have this molecule here, Cc1nc2n(c(=O)c1CCN1CCC(c3noc4cc(F)ccc34)CC1)CCCC2O (configuration not stated) , and I need its recorded cell viability. 113

Would you kindly share the measured cell viability for OCC(O)C(O)C(O)CO (configuration not stated) ? 101

GET /values?readout=cell viability&item= Cc1ccc(C(=O)N(CCCN)C(c2nc3cc(Cl)ccc3c(=O)n2Cc2ccccc2)C(C)C)cc1 (configuration not stated) 45.5

More entries:
# get_value(readout='cell viability', item= NCC1OC(OC2C(N)CC(N)C(OC3OC(CO)C(O)C(N)C3O)C2O)C(O)C(O)C1O.O=S(=O)(O)O (configuration not stated) [Kanamycin Sulfate] ) 86.8

Could you share which cell viability value was measured for Cn1c(=O)cc(N2CCCC(N)C2)n(Cc2cc(F)ccc2C#N)c1=O (configuration not stated) ? 95.2

Field request: cell viability | item: O=C(CCc1ccc(O)cc1)c1c(O)cc(O)cc1OC1OC(CO)C(O)C(O)C1O (configuration not stated) 115

Bench note: what cell viability did `COC(=O)N(C)c1c(N)nc(-c2nn(Cc3ccccc3F)c3ncccc23)nc1N` show? 91.6

Please give the measured cell viability for this molecule: `C#Cc1cccc(Nc2ncnc3cc(OCCOC)c(OCCOC)cc23)c1` 81.1

Record request: cell viability value, item `O=C(CCCN1CC=C(n2c(=O)[nH]c3ccccc32)CC1)c1ccc(F)cc1` 107

State the recorded cell viability for this entry: CC(=O)N1CCN(c2ccc(OCC3COC(Cn4ccnc4)(c4ccc(Cl)cc4Cl)O3)cc2)CC1 (configuration not stated) [Ketoconazole] 122

Fill blank: measured cell viability of the molecule CC(OC1OCCN(Cc2nc(=O)n(P(=O)(O)O)[nH]2)C1c1ccc(F)cc1)c1cc(C(F)(F)F)cc(C(F)(F)F)c1.CNCC(O)C(O)C(O)C(O)CO.CNCC(O)C(O)C(O)C(O)CO (configuration not stated) [Fosaprepitant dimeglumine salt] is ____. 91.7

Value lookup for cell viability; key = CC1=C(C(=O)O)N2C(=O)C(NC(=O)C(N)c3ccccc3)C2SC1 (configuration not stated) 113

// returns reported cell viability for input `O=C(O)CO.[NH2-].[NH2-].[Pt+2]` 51.1

Any idea what cell viability was measured for C=C1CCN(C(C)C(O)(Cn2cncn2)c2ccc(F)cc2F)CC1 (configuration not stated) ? 165

cell viability for NCC1OC(OC2C(CO)OC(OC3C(O)C(N)CC(N)C3OC3OC(CO)C(O)C(O)C3N)C2O)C(N)C(O)C1O.O=S(=O)(O)O (configuration not stated) [Paromomycin Sulfate] ? 129

Value lookup for cell viability; key = `CO[C@@]12[C@H](COC(N)=O)C3=C(C(=O)C(C)=C(N)C3=O)N1C[C@@H]1N[C@@H]12` 61.4
